# protocol-text: recombinant UMI read abundance after kanamycin selection (control-corrected) (log10(CPM+1)); higher = more efficient recombination; extreme values may be limits of the assay; sequences stand for … in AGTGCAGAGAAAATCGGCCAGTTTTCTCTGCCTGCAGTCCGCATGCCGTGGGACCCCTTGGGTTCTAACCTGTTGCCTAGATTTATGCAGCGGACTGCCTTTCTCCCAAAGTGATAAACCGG…AGGTTGGTTTCACT; site = the 11-nt donor;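 also: IS621 bridge recombinase in Escherichia coli cells against a fixed T5 target plasmid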
Note to self: values exactly at 1 are met. So recombinant UMI read abundance (log10) at or above 1 is met, below is not met.

# monomer-sequence, class-assignment
data = [
    ("GTGGACGCATGGACCGGTTTTCCCGGTAATCCGTATTTGTG (site GTGGAAGCTCA)", "met"),
    ("GGATAGACATGGACCGGTTTTCCCGGTAATCCGTATTTGCT (site GGATAGACTAG)", "met"),
    ("GGGAAGCCATGGACCGGTTTTCCCGGTAATCCGTATTTGGG (site GGGAAGCCTCC)", "not met"),
    ("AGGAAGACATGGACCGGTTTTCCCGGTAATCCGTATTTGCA (site AGGAATACTTG)", "met"),
    ("CATTCATCATGGACCGGTTTTCCCGGTAATCCGTATTTGCT (site CATTCATCTAG)", "met"),
    ("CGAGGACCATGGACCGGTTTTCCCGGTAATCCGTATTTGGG (site CGAGGGCCTCC)", "not met"),
    ("GCAACTGCATGGACCGGTTTTCCCGGTAATCCGTATTTGCC (site GCGACTGCTGG)", "not met"),
    ("AACCGTCCATGGACCGGTTTTCCCGGTAATCCGTATTTGAA (site AACCGTCCTTT)", "not met"),
    ("GTGGAGCCATGGACCGGTTTTCCCGGTAATCCGTATTTGTG (site GTGGAGCCTCA)", "not met"),
]

---

# protocol-text: recombinant UMI read abundance after kanamycin selection (control-corrected) (log10(CPM+1)); higher = more efficient recombination; extreme values may be limits of the assay; sequences stand for … in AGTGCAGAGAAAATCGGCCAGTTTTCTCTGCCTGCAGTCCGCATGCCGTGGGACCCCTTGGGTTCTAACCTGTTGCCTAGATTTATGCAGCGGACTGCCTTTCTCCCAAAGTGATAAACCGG…AGGTTGGTTTCACT; site = the 11-nt donor

# monomer-sequence, recombinant UMI read abundance (log10)
rows = [
    ("TAATGAGCATGGACCGGTTTTCCCGGTAATCCGTATTTGTG (site TAATGAGCTCA)", 1.16),
    ("AAGCAAGCATGGACCGGTTTTCCCGGTAATCCGTATTTGGG (site AAGCACGCTCC)", 0.0526),
    ("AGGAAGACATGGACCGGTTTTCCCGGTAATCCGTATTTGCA (site TGGAAGACTTG)", 1.16),
    ("CGACGCGCATGGACCGGTTTTCCCGGTAATCCGTATTTGGG (site CGACGCGCTCC)", 0.672),
    ("ACACGAGCATGGACCGGTTTTCCCGGTAATCCGTATTTGTC (site ACACGATCTGA)", 2.27),
]

---

# protocol-text: recombinant UMI read abundance after kanamycin selection (control-corrected) (log10(CPM+1)); higher = more efficient recombination; extreme values may be limits of the assay; sequences stand for … in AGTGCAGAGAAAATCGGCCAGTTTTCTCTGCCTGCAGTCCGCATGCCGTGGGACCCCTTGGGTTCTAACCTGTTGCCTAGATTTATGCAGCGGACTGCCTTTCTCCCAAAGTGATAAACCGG…AGGTTGGTTTCACT; site = the 11-nt donor
We'd kindly ask you to apply these recombinant UMI read abundance (log10) classes: low (below 0.01), mid (0.01 to below 0.5), high (0.5 or more)

# monomer-sequence, class-assignment
records = [
    ("TGCAGCACATGGACCGGTTTTCCCGGTAATCCGTATTTGCG (site TGCAGCACTCG)", "high"),
    ("GCCACTGCATGGACCGGTTTTCCCGGTAATCCGTATTTGCC (site GCCACTGCTGG)", "high"),
    ("TAGCTAGCATGGACCGGTTTTCCCGGTAATCCGTATTTGAA (site CAGCTAGCTTT)", "mid"),
    ("CCGTTTGCATGGACCGGTTTTCCCGGTAATCCGTATTTGCT (site CCGTTTCCTAG)", "low"),
    ("CACGCCCCATGGACCGGTTTTCCCGGTAATCCGTATTTGTT (site CACGCCCCTAA)", "mid"),
    ("TAGCCTACATGGACCGGTTTTCCCGGTAATCCGTATTTGGT (site TAGCCTACTAC)", "low"),
    ("CGGACATCATGGACCGGTTTTCCCGGTAATCCGTATTTGCT (site CGGACATCTGG)", "mid"),
    ("GCGAAGCCATGGACCGGTTTTCCCGGTAATCCGTATTTGCG (site GCGAAGCCTCC)", "mid"),
]

---

# protocol-text: recombinant UMI read abundance after kanamycin selection (control-corrected) (log10(CPM+1)); higher = more efficient recombination; extreme values may be limits of the assay; sequences stand for … in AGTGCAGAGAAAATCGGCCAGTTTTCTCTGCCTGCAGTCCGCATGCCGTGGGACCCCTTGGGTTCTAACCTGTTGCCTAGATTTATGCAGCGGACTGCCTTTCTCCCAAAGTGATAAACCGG…AGGTTGGTTTCACT; site = the 11-nt donor
Recorded recombinant UMI read abundance (log10) determines the group label, using class 1: < 0.005; class 2: ≥ 0.005 and < 1; class 3: ≥ 1

# monomer-sequence, class-assignment
rows = [
    ("ATAAGGCCATGGACCGGTTTTCCCGGTAATCCGTATTTGAC (site ATATGGCCTGT)", "class 2"),
    ("CCGATATCATGGACCGGTTTTCCCGGTAATCCGTATTTGTC (site CCAATATCTGA)", "class 1"),
    ("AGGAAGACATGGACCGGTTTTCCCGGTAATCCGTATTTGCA (site AGGTAGACTTG)", "class 3"),
    ("GATTGTCCATGGACCGGTTTTCCCGGTAATCCGTATTTGCT (site GATTTTCCTAG)", "class 1"),
    ("AGCCAAGCATGGACCGGTTTTCCCGGTAATCCGTATTTGAG (site ATCCAAGCTCT)", "class 2"),
    ("TAAGAATCATGGACCGGTTTTCCCGGTAATCCGTATTTGCG (site TACGAATCTCG)", "class 3"),
    ("TGATCATCATGGACCGGTTTTCCCGGTAATCCGTATTTGCT (site CGATCATCTAG)", "class 3"),
    ("CTACTTACATGGACCGGTTTTCCCGGTAATCCGTATTTGGA (site CTACTTACTTC)", "class 3"),
    ("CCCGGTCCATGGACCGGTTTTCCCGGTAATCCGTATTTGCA (site CCCGGTGCTTG)", "class 1"),
    ("GTGGAGACATGGACCGGTTTTCCCGGTAATCCGTATTTGTG (site GTGGAGACTCA)", "class 3"),
    ("ACTACTGCATGGACCGGTTTTCCCGGTAATCCGTATTTGCC (site TCTACTGCTGG)", "class 3"),
    ("CTGTCGACATGGACCGGTTTTCCCGGTAATCCGTATTTGGG (site CGGTCGACTCC)", "class 2"),
    ("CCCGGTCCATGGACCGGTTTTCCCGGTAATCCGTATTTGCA (site CCCTGTCCTTG)", "class 2"),
    ("TCTTACGCATGGACCGGTTTTCCCGGTAATCCGTATTTGGC (site TCTTACGCTGC)", "class 1"),
    ("CCAGATGCATGGACCGGTTTTCCCGGTAATCCGTATTTGAT (site CCAGGTGCTAT)", "class 2"),
    ("CTGCAACCATGGACCGGTTTTCCCGGTAATCCGTATTTGCT (site CTGCCACCTAG)", "class 2"),
    ("GCTACGCCATGGACCGGTTTTCCCGGTAATCCGTATTTGTA (site GCAACGCCTTA)", "class 2"),
    ("CTATTATCATGGACCGGTTTTCCCGGTAATCCGTATTTGAT (site CTAGTATCTGT)", "class 1"),
]

---

# protocol-text: recombinant UMI read abundance after kanamycin selection (control-corrected) (log10(CPM+1)); higher = more efficient recombination; extreme values may be limits of the assay; sequences stand for … in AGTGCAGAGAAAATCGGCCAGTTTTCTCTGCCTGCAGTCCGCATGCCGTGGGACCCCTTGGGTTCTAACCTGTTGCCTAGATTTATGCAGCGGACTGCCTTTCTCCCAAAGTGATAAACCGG…AGGTTGGTTTCACT; site = the 11-nt donor

# monomer-sequence, recombinant UMI read abundance (log10)
data = [
    ("CCGATATCATGGACCGGTTTTCCCGGTAATCCGTATTTGTC (site CCTATATCTGA)", 0),
    ("AACGGTCCATGGACCGGTTTTCCCGGTAATCCGTATTTGGC (site AACGGTCCTGC)", 0),
    ("ACCAATTCATGGACCGGTTTTCCCGGTAATCCGTATTTGCC (site CCCAATTCTGG)", 1.91),
    ("GACTATTCATGGACCGGTTTTCCCGGTAATCCGTATTTGTA (site GACTATTCTTA)", 1.34),
    ("ACCGGTCCATGGACCGGTTTTCCCGGTAATCCGTATTTGCA (site TCCGGTCCTTG)", 0),
]
